Entries annotated with measured shrunken log2 fold change
# System: Escherichia coli TOP10;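 note: peptides expressed intracellularly from a pBAD plasmid library in pooled LB shake-flask culture, induced with 0.3% L-arabinose, DNA abundance read by NGS, three biological replicates, DESeq2 with apeglm shrinkage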
# Assay Comment: shrunken log2 fold change of peptide-encoding DNA abundance (4.5 h post-induction vs induction); higher = less antimicrobial activity (less host growth inhibition)
# Applied Conditions: time post-induction: 4.5 h; library: site-saturation at positions 5, 18, 19, 20
Outcome Measure: shrunken log2 fold change

1. RRIRQRPPRLPRPRPRPFASPRP    -0.35
2. RRIRMRPPRLPRPRPRPLGQPRP    0.738
3. RRIRCRPPRLPRPRPRPSTFPRP    -0.714
4. RRIRYRPPRLPRPRPRPNCKPRP    -0.504
5. RRIRIRPPRLPRPRPRPPIDPRP    -0.724
6. RRIRCRPPRLPRPRPRPSQHPRP    -0.114
7. RRIRVRPPRLPRPRPRPHRPPRP    -0.243
8. RRIRYRPPRLPRPRPRPGPMPRP    -0.148
